system: RAW-Dual; experiment: NF-kB SEAP reporter activity, fold change vs agonist alone; cytotoxicity flag (confluency mask): not cytotoxic; higher = enhanced NF-kB activity; details: agonist: ODN 1826 (TLR9) 0.5 ug/mL
In all, about 2,900 compounds were measured (“NF-kB SEAP reporter activity, fold change vs agonist alone”: median about 0.99, highest 2% from about 2.6 on). The list comes from a sample in which the highest values are over-represented; it also holds close analogues and randomly drawn compounds.
Parameter: NF-kB SEAP reporter activity. Scope: all listed entries.
Answer with a bare number; do not write a unit.

[[record]]
molecule = "CCOc1cc(N)c([N+](=O)[O-])cc1C(=O)NC1CCN(CC2CC=CCC2)CC1.O=C(O)C(O)C(O)C(=O)O (stereo not given) (library stock concentration (final ~1000-fold dilution): 10 mM)"
recordednumber = 0.18

[[record]]
molecule = "CC1=CC2(O)OC3(CC2=C(C)C)C(C)CCC13 (stereo not given) (library stock concentration (final ~1000-fold dilution): 10 mM)"
recordednumber = 0.938


Result for CCCC1CC(C(=O)NC(C(C)Cl)C2OC(SC)C(O)C(O)C2O)N(C)C1.Cl.O (stereo not given) (library stock concentration (final ~1000-fold dilution): 10 mM) , tested on RAW-Dual, NF-kB SEAP reporter activity: 0.918

Record O=C(O)CCN1C(=O)/C(=C2/C(=O)Nc3ccc(Cl)cc32)SC1=S (library stock concentration (final ~1000-fold dilution): 10 mM) has RAW-Dual NF-kB SEAP reporter activity equal to 0.841

Considering C=C(C)C1CCC2(C)CCC3(C)C(CCC4C5(C)CCC(O)C(C)(C)C5CCC43C)C12 (stereo not given) (library stock concentration (final ~1000-fold dilution): 2 mM) , its NF-kB SEAP reporter activity with RAW-Dual was recorded as 0.949
